Biological target: human Cav2.2 (Homo sapiens, UniProt Q00975)
Sequence (Q00975 whole entry): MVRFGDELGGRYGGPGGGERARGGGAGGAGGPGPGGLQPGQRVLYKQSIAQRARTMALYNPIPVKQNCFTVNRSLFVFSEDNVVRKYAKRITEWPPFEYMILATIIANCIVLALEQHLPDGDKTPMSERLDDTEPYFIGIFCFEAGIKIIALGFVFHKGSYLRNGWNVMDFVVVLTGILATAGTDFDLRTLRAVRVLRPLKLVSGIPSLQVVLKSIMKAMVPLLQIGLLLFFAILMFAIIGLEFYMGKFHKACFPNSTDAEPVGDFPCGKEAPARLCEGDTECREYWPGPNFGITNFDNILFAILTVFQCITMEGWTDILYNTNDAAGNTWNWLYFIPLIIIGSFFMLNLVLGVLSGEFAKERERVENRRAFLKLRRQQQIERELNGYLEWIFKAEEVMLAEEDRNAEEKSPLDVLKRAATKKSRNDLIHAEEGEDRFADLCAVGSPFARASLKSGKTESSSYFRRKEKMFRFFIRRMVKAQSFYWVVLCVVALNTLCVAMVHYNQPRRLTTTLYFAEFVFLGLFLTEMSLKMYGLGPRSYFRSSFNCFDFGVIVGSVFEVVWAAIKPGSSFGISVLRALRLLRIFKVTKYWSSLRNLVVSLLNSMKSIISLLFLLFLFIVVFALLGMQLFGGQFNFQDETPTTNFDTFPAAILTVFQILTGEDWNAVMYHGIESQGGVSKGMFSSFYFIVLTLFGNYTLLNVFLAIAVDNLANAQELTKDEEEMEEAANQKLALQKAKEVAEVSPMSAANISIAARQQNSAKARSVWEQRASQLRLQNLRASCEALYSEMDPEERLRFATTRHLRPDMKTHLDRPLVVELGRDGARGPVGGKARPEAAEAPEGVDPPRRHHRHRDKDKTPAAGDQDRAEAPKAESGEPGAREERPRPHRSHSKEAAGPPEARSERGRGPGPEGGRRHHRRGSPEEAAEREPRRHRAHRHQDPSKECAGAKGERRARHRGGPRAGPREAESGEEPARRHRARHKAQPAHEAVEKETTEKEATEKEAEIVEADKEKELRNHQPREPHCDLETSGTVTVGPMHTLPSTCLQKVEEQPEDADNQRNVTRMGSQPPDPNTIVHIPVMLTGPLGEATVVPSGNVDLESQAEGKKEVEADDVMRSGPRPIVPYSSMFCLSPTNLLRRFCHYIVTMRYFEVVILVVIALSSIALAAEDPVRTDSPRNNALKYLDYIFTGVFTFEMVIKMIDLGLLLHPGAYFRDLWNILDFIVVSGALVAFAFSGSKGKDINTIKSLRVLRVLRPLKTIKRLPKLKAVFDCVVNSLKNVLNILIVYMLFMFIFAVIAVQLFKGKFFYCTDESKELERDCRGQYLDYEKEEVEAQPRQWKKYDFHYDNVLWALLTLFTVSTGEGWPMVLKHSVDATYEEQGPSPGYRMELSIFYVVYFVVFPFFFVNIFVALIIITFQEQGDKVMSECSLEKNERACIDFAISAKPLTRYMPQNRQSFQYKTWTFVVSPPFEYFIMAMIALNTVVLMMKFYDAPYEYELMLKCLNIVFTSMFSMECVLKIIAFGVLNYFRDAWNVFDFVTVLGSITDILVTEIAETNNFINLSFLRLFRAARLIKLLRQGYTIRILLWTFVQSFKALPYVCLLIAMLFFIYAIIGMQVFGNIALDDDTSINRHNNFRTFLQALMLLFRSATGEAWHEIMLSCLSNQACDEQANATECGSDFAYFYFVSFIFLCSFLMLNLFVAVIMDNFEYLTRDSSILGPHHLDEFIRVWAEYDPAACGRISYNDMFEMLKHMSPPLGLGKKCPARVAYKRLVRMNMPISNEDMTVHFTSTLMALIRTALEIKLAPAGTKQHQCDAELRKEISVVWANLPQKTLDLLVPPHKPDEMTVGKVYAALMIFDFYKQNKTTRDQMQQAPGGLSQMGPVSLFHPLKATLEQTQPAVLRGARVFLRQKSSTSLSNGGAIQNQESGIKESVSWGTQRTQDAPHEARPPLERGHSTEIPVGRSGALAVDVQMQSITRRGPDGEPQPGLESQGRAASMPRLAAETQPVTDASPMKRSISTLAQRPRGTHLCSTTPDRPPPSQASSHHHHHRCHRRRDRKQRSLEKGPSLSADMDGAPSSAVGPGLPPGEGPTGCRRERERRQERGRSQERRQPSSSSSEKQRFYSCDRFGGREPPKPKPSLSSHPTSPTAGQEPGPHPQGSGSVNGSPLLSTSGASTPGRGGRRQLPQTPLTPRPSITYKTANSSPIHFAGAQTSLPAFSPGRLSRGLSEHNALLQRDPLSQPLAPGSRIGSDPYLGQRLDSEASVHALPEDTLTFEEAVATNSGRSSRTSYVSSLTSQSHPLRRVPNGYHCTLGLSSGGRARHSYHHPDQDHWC
Sequence (P54289 25-956 partner limits assumed): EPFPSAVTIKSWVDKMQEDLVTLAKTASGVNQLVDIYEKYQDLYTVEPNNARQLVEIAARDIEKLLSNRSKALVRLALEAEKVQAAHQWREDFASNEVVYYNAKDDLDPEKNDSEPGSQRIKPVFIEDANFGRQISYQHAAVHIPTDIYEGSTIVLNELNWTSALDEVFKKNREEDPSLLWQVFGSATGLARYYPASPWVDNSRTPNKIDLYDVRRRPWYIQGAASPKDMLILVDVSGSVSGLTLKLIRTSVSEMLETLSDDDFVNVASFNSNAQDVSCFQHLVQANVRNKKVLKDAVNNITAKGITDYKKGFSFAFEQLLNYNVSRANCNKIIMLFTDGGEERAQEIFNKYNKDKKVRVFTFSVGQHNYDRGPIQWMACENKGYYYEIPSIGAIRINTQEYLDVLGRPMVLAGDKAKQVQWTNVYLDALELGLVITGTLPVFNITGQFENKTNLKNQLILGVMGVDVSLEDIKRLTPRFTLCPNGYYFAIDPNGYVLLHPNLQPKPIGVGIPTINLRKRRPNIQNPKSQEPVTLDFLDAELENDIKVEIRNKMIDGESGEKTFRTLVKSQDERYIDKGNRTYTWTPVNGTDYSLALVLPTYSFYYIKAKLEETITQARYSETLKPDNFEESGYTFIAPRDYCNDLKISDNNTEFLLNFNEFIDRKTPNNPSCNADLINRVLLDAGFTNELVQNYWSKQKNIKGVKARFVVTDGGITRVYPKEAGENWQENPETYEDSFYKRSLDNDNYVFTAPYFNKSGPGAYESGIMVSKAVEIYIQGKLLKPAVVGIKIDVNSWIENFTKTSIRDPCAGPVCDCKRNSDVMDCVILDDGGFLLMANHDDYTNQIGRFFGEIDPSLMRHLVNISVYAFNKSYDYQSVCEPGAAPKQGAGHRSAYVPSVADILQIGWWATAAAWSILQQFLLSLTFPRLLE
Sequence (P54289 957-1103 partner limits assumed): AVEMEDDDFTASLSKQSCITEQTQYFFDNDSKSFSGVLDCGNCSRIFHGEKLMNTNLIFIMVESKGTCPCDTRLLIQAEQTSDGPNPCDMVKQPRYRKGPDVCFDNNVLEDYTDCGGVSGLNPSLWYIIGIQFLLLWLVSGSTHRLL
Sequence (P54284 whole entry partner): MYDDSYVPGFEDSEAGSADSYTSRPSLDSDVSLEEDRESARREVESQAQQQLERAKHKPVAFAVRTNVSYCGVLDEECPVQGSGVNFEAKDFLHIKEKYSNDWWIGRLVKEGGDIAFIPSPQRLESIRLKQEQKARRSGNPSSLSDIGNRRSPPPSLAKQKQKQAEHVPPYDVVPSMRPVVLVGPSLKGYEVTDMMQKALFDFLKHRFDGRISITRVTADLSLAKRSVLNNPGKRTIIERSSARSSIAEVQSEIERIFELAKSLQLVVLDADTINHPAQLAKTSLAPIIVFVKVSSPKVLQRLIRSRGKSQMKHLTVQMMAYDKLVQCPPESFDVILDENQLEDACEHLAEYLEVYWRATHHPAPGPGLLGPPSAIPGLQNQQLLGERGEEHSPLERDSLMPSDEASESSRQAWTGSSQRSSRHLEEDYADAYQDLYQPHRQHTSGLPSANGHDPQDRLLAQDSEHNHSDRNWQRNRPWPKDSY
Test: Assessment of calcium channel activity using FLIPR (Ca2+ influx in IMR32 cells)
Type: cell-based
measured.quantity: IC50 (nM)

# compound, measured.quantity, assay.value
measured = [
    ("O=C(N[C@H]1CC[C@@H]2CN(c3cccc(C(F)(F)F)n3)C[C@@H]21)[C@@H]1C[C@@H](F)CN1 [Example 592]", "IC50", 4500),
    ("CC[C@H](C)[C@H](NC)C(=O)N[C@H]1CC[C@@H]2CN(S(=O)(=O)c3ccc(C(F)(F)F)cc3)C[C@@H]21 [Example 411]", "IC50", 2310),
    ("N[C@@H](CC1CCCCC1)C(=O)N[C@H]1CC[C@@H]2CN(S(=O)(=O)c3ccc(C(F)(F)F)cc3)C[C@@H]21 [Example 426]", "IC50", 1790),
    ("Fc1ccc2[nH]c(CN[C@H]3CC[C@@H]4CN(c5cccc(C(F)(F)F)c5)C[C@@H]43)cc2c1 [Example 616]", "IC50", 4220),
    ("Cc1oncc1C(=O)N[C@H]1CC[C@@H]2CN(c3cccc(C(F)(F)F)n3)C[C@@H]21 [Example 581]", "IC50", 2990),
    ("O=C(N[C@H]1CC[C@H]2CN(Cc3cccc(C(F)(F)F)c3)C[C@H]21)C(c1ccccc1)c1ccccc1 (relative stereo) [Example 135]", "IC50", 670),
    ("Fc1ccc(-c2c[nH]c(CN[C@H]3CC[C@@H]4CN(c5cccc(C(F)(F)F)n5)C[C@@H]43)n2)cc1 [Example 744]", "IC50", 1210),
    ("CN[C@@H](CC1CC1)C(=O)N[C@H]1CC[C@@H]2CN(c3ccc(OC(F)(F)F)cc3)C[C@@H]21 [Example 775]", "IC50", 2770),
]

a: FC(F)(F)c1cccc(N2C[C@H]3CC[C@H](NCc4[nH]c5ccccc5c4Cl)[C@H]3C2)n1 [Example 679]
b: CCC[C@H](NC)C(=O)N(C)[C@H]1CC[C@@H]2CN(S(=O)(=O)c3ccc(C(F)(F)F)cc3)C[C@@H]21 [Example 438]
c: Fc1ccc2[nH]c(CN[C@H]3CC[C@@H]4CN(c5ccc(C(F)(F)F)cn5)C[C@@H]43)cc2c1 [Example 614]
Incoming: Which order do these items take when sorted by rising IC50? List them. // ordering of labels required in reply
Outgoing: a, c, b

1: FC(F)(F)c1ccc(-c2nc(CN[C@H]3CC[C@@H]4CN(c5cccc(C(F)(F)F)n5)C[C@@H]43)c[nH]2)cc1 [Example 742]
2: CN[C@@H](CC(C)C)C(=O)N[C@H]1CC[C@@H]2CN(c3cccc(C#N)c3)C[C@@H]21 [Example 646]
Incoming: Lab note: check whether 1 or 2 has the lower measured IC50. Indicate your choice by writing its label.
Outgoing: 1
(1: 1300 nM, 2: 2160 nM)

I: Fc1ccc2[nH]c(CN[C@H]3CC[C@@H]4CN(c5cccc(C(F)(F)F)n5)C[C@@H]43)cc2c1 [Example 613]
II: CN[C@@H](CC(C)C)C(=O)N[C@H]1CC[C@@H]2CN(c3nnc(C(F)(F)F)s3)C[C@@H]21 [Example 734]
III: O=C(N[C@H]1CC[C@H]2CN(Cc3cccc(C(F)(F)F)c3)C[C@H]21)C1CCCCCC1 (relative stereo) [Example 128]
IV: Cc1cccc(N2C[C@H]3CC[C@H](NC(=O)[C@@H]4C[C@@H](F)CN4)[C@H]3C2)c1 [Example 642]
V: CC(C)[C@@H](C(=O)N[C@@H]1CC[C@H]2CN(Cc3cccc(C(F)(F)F)c3)C[C@H]21)N(C)C(=O)OC(C)(C)C [Example 316]
Incoming: Rank entries according to their IC50, from the largest number down. Please, when replying, give the labels in the order that was requested.
Outgoing: II, IV, V, I, III
(II: 26400 nM, IV: 15600 nM, V: 2020 nM, I: 910 nM, III: 560 nM)

I: O=C(N[C@H]1CC[C@H]2CN(Cc3cccc(OC(F)(F)F)c3)C[C@H]21)C(C1CCCCC1)C1CCCCC1 [Example 63]
II: CN[C@@H](CC(C)C)C(=O)N[C@H]1CC[C@@H]2CN(c3ccc(OC(F)(F)F)cc3)C[C@@H]21 [Example 624]
III: O=C(N[C@H]1CC[C@H]2CN(Cc3ccccc3C(F)(F)F)C[C@H]21)C(C1CCCCC1)C1CCCCC1 [Example 60]
IV: O=C(N[C@H]1CC[C@H]2CN(Cc3cccc(C(F)(F)F)c3)C[C@H]21)C(O)C1CCCCC1 (stereo partly shown) [Example 237]
Incoming: Rank order required: IC50, descending. Answer by writing out the labels in the requested order.
Outgoing: II, III, IV, I
(II: 4910 nM, III: 2430 nM, IV: 1460 nM, I: 510 nM)
